Biological target: HCV polymerase (NS5B) type 1a (Hepatitis C virus genotype 1a)
Construct: made in house; host or cells: Escherichia coli (by the 'similar method' of the 1b enzyme)
Test: Assay of enzyme (HCV polymerase) inhibitory activity, type 1a enzyme
Type: biochemical, HCV type 1a (cloned from the blood of patients)
Details: HCV polymerase inhibitory activity (IC50), 1a, type 1a enzyme 1.5 μg/ml, 25° C., 60 min
Protocol: The evaluation of the HCV polymerase inhibitory activity of the compound of the present invention is explained in the following. This polymerase is an enzyme coded for by the non-structural protein region called NS5B on the genome RNA of HCV. i) Preparation of Enzyme (HCV Polymerase) […] The HCV polymerase inhibitory activity (IC50) of the compound of the present invention was calculated from the values of radioactivity of the enzyme reaction with and without the test substance. […]
Structures can show the parent of a compound that is named as a salt.
Quick list: IC50 per entry.

Observed IC50 on HCV polymerase (NS5B) type 1a (Hepatitis C virus genotype 1a), entry CC(C)(C)c1ccc(CNC(=O)[C@H]2CN(c3nc4c(s3)CNCC4)CCN2S(=O)(=O)c2ccc(OC(F)(F)F)cc2)cc1 , equals < 100 nM

Observed IC50 on HCV polymerase (NS5B) type 1a (Hepatitis C virus genotype 1a), entry CC(C)c1ccc(S(=O)(=O)N2CCN(C(=O)c3ccccc3)CC2C(=O)NCc2ccc(C(F)(F)F)cc2)cc1 (stereo not shown) , equals > 1000 nM

Observed IC50 on HCV polymerase (NS5B) type 1a (Hepatitis C virus genotype 1a), entry CN(C)c1ccc(CNC(=O)C2CN(CC(=O)O)CCN2S(=O)(=O)c2ccc(I)cc2)cc1 (stereo not shown) , equals > 1000 nM

Observed IC50 on HCV polymerase (NS5B) type 1a (Hepatitis C virus genotype 1a), entry CN(C)c1ccc(CNC(=O)[C@H]2CNCCN2S(=O)(=O)c2ccc(C(F)(F)F)cc2)cc1 [Example 209, dihydrochloride] , equals > 1000 nM

Observed IC50 on HCV polymerase (NS5B) type 1a (Hepatitis C virus genotype 1a), entry CN(C)c1ccc(CNC(=O)[C@H]2CN(C(=O)CN3CCOCC3)CCN2S(=O)(=O)c2ccc(I)cc2)cc1 , equals 100 to 1000 nM

Observed IC50 on HCV polymerase (NS5B) type 1a (Hepatitis C virus genotype 1a), entry CCOC(=O)Cc1nnn(CC(=O)N2CCN(S(=O)(=O)c3ccc(OC(F)(F)F)cc3)[C@@H](C(=O)NCc3ccc(C(F)(F)CC)cc3)C2)n1 , equals < 100 nM

Observed IC50 on HCV polymerase (NS5B) type 1a (Hepatitis C virus genotype 1a), entry CCCC(CCC)c1ccc(CNC(=O)C2CN(C(C)=O)CCN2S(=O)(=O)c2ccc(C(C)C)cc2)cc1 (stereo not shown) , equals > 1000 nM
